- experimental-target: D2-BGL (Chaetomella raphigera)
- Construct: secreted recombinant from Pichia pastoris SMD1168 (pGAPZalphaC), His-tagged (strain #5 has an extra N-terminal 6-His), IMAC purified, N-hyperglycosylated, smear 95-180 kDa; TIM barrel 1-307, alpha/beta sandwich 319-521, FnIII 573-712
- Sequence (A0A068FT77 1-722): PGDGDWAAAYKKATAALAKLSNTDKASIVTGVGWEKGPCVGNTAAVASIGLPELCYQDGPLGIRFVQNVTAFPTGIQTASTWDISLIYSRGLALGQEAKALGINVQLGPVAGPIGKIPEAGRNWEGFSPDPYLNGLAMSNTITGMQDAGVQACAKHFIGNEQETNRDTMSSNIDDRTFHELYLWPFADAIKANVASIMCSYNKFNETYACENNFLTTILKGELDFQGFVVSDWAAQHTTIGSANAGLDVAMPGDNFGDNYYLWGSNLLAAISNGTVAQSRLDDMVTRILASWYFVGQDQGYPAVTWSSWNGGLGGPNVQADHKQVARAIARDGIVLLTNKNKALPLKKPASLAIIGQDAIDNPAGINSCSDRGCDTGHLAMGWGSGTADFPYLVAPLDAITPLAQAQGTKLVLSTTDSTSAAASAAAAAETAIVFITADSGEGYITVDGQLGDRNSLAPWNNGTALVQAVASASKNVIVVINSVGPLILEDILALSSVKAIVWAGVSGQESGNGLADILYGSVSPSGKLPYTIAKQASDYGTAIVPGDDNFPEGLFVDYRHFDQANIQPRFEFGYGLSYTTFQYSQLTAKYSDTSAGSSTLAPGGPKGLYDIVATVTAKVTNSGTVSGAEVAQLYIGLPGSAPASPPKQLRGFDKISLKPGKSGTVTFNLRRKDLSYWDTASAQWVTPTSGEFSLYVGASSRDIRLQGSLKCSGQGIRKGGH
- method-notes: inhibition of pNPG hydrolysis at […] glucose, absorbance of pNP at […] nm, non-linear fit
- condition-parameters: read-out: Ki glucose; substrate pNPG; pH 5 (50 mM sodium acetate), 55 °C; product inhibition
readout-label: Ki (µM)
Please state the figure in µM; there is no need to write the unit.

Which Ki reading was recorded for the molecule OC[C@H]1OC(O)[C@H](O)[C@@H](O)[C@@H]1O (stereo partly shown) [glucose] ?
2420
